TARGET_OR_SYSTEM: PAI-1 (Homo sapiens, UniProt P05121)
Sequence (P05121 24-402): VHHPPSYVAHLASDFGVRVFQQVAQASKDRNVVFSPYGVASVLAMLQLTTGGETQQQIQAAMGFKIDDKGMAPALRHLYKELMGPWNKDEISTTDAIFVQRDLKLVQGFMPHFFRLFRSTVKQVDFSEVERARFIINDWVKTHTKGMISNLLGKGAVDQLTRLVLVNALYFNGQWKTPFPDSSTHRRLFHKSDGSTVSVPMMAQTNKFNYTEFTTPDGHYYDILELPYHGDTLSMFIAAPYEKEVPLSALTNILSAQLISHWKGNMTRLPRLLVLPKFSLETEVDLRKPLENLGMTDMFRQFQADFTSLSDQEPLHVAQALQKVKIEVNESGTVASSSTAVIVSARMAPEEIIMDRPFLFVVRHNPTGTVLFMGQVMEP
Measured IC50 of individual entries
Expressed in nM, but write only the number.

- CCc1cc2c(cc1-c1csc(Nc3cccc(C(=O)O)c3)n1)C(C)(C)CCC2(C)C: 1100

// next item, IC50 requested
Lab note: PAI-1 (Homo sapiens, UniProt P05121) assay, enter IC50 for CCc1cc2c(cc1-c1csc(Nc3ccc(C(=O)O)cc3)n1)C(C)(C)CCC2(C)C here
1800
